# TARGET_OF_ASSAY: Corticotropin-releasing factor receptor 2/Corticotropin-releasing factor-binding protein (Homo sapiens, UniProt P24387+Q13324)
# Sequence (Q13324 whole entry): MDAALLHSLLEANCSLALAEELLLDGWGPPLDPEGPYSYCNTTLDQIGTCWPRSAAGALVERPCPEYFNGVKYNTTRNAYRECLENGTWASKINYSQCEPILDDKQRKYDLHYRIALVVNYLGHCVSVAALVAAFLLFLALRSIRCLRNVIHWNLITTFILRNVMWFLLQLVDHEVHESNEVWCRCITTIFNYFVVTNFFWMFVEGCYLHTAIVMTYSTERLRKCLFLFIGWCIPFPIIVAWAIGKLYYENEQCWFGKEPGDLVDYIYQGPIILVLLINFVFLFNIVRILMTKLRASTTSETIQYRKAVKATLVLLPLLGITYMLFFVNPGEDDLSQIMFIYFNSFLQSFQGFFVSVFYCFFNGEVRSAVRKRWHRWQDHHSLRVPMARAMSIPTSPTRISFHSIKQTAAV
# Sequence (P24387 whole entry): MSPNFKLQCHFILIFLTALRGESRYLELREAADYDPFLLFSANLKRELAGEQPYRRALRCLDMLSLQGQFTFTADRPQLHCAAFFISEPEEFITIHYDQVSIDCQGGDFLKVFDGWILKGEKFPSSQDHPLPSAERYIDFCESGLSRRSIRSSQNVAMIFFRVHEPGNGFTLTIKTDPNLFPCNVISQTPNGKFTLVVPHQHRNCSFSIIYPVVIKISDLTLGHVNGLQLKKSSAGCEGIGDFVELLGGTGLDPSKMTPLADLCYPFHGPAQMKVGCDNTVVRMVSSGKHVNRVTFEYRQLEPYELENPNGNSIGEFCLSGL
# TEST_DESCRIPTION: activators of CRF receptor 2 with binding protein – uHTS hits, confirmation (AID 602473)
# Type: functional
# ASSAY_CONTEXT: read-out: EC50_Mean
Calls of active or inactive are those of the source.
Outcome codes: TRUE = active, FALSE = inactive

{"columns": ["MOLECULE", "GROUP_LABEL"],
 "data": [
  ["COc1ccc(C(=O)Nc2ccc(C3CC3(Cl)Cl)cc2)cc1 (stereo not given)", "FALSE"],
  ["Cc1ccc(S(=O)(=O)N2CCC(=O)N(C(COCc3ccc(Cl)c(Cl)c3)Cc3ccccc3)CC2)cc1 (stereo not given)", "TRUE"],
  ["O=C(CSc1nc(-c2ccco2)cc(C(F)(F)F)n1)NCCCN1CCOCC1", "FALSE"],
  ["COc1ccc(C(=O)Nc2cc(=O)n(C)c(=O)n2C)cc1", "FALSE"],
  ["Cc1ccc(-n2c3nc(=O)[nH]c(=O)c-3cc3cc([N+](=O)[O-])ccc32)cc1C", "TRUE"],
  ["CCOc1ccc(NC(=O)CSc2ccc3nnc(-c4cccnc4)n3n2)cc1", "FALSE"],
  ["CCOc1ccc(Cl)cc1S(=O)(=O)n1nnc2ccccc21", "FALSE"],
  ["CCOC(=O)c1nnn(-c2nonc2N)c1CN(C)C1CCCCC1", "FALSE"],
  ["COc1ccc(NC(=O)CN(C)C(=O)c2cccc(S(=O)(=O)N3CCN(c4ccc(F)cc4)CC3)c2)cc1", "FALSE"],
  ["COc1ccc2oc(C(=O)NCCC(C)C)c(C)c2c1", "FALSE"]
]}

---

# Test system: INS1
# TEST_DESCRIPTION: beta cell apoptosis inhibitors, cytokine rescue, dose response, luminescence, retest (AID 449756);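 further: cell death triggered by IL-1 beta plus TNF-alpha plus IFN-gamma mixture; protective hits raise ATP signal compared with cytokine alone wells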
# Assay type: functional, cell-based
# ASSAY_CONTEXT: Rattus norvegicus
The source made the active and inactive calls.
Here, each record is paired with measured AC50 data.

{"columns": ["MOLECULAR_STRING", "AC50"],
 "data": [
  ["O=C(Nc1nc(-c2ccccn2)cs1)c1ccc(Br)s1", "1.03 µM (active)"],
  ["NC(=S)N/N=C/c1c(O)c(Br)cc2oc3c(c12)CCCC3", "0.819 µM (active)"],
  ["CN1CCN(c2ccc(CNS(=O)(=O)Cc3cccc(C(F)(F)F)c3)cc2)CC1", "4.36 µM (active)"],
  ["Cc1ccc(O)c(CNc2cccc3cccnc23)c1", "13.2 µM (active)"],
  ["CN1/C(=C\\C=N\\NC(=O)c2ccc(O)cc2)C(C)(C)c2ccccc21", "5.43 µM (active)"]
]}

---

# TARGET_OF_ASSAY: Carboxy-terminal domain RNA polymerase II polypeptide A small phosphatase 1 (Homo sapiens)
# Sequence (Q9GZU7 whole entry, the tested form may be a part): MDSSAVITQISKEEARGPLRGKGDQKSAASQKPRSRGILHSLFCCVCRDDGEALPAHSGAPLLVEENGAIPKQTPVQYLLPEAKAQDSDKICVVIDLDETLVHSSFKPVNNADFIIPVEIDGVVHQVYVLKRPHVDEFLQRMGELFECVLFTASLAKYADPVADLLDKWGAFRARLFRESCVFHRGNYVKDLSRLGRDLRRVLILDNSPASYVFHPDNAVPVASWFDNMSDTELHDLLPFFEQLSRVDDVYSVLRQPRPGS
# TEST_DESCRIPTION: inhibitors of CTDSP1, concentration-response testing, biochemical assay, absorbance-based, actives from ultra-high-throughput screening (AID 540297)
# Type: functional
Calls of active or inactive are those of the source.
Outcome codes: active, inactive

{"columns": ["COMPOUND", "TARGET_OF_ASSAY", "GROUP_LABEL"],
 "data": [
  ["O=C(N/N=C/c1ccc2ccccc2c1)c1ccc(COc2ccc3c(c2)CCC3)o1", "Carboxy-terminal domain RNA polymerase II polypeptide A small phosphatase 1 (Homo sapiens)", "active"],
  ["C[N+]1(CCCCSc2ccc(O)cc2)CCCCC1", "Carboxy-terminal domain RNA polymerase II polypeptide A small phosphatase 1 (Homo sapiens)", "active"],
  ["COc1ccccc1-c1nnc2sc(-c3cnccn3)nn12", "Carboxy-terminal domain RNA polymerase II polypeptide A small phosphatase 1 (Homo sapiens)", "active"],
  ["CC1=NNC(=O)C1CCC(=O)N/N=C/c1ccco1 (stereo not given)", "Carboxy-terminal domain RNA polymerase II polypeptide A small phosphatase 1 (Homo sapiens)", "inactive"],
  ["O=C(Cc1coc2cc3c(cc12)CCC3)OCc1cc(=O)n2c(n1)sc1ccccc12", "Carboxy-terminal domain RNA polymerase II polypeptide A small phosphatase 1 (Homo sapiens)", "active"]
]}

---

# TARGET_OF_ASSAY: Voltage-dependent T-type calcium channel subunit alpha-1H (Homo sapiens, UniProt O95180);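 further: channel activity triggered by adding a high calcium stimulation buffer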
# Sequence (O95180 whole entry): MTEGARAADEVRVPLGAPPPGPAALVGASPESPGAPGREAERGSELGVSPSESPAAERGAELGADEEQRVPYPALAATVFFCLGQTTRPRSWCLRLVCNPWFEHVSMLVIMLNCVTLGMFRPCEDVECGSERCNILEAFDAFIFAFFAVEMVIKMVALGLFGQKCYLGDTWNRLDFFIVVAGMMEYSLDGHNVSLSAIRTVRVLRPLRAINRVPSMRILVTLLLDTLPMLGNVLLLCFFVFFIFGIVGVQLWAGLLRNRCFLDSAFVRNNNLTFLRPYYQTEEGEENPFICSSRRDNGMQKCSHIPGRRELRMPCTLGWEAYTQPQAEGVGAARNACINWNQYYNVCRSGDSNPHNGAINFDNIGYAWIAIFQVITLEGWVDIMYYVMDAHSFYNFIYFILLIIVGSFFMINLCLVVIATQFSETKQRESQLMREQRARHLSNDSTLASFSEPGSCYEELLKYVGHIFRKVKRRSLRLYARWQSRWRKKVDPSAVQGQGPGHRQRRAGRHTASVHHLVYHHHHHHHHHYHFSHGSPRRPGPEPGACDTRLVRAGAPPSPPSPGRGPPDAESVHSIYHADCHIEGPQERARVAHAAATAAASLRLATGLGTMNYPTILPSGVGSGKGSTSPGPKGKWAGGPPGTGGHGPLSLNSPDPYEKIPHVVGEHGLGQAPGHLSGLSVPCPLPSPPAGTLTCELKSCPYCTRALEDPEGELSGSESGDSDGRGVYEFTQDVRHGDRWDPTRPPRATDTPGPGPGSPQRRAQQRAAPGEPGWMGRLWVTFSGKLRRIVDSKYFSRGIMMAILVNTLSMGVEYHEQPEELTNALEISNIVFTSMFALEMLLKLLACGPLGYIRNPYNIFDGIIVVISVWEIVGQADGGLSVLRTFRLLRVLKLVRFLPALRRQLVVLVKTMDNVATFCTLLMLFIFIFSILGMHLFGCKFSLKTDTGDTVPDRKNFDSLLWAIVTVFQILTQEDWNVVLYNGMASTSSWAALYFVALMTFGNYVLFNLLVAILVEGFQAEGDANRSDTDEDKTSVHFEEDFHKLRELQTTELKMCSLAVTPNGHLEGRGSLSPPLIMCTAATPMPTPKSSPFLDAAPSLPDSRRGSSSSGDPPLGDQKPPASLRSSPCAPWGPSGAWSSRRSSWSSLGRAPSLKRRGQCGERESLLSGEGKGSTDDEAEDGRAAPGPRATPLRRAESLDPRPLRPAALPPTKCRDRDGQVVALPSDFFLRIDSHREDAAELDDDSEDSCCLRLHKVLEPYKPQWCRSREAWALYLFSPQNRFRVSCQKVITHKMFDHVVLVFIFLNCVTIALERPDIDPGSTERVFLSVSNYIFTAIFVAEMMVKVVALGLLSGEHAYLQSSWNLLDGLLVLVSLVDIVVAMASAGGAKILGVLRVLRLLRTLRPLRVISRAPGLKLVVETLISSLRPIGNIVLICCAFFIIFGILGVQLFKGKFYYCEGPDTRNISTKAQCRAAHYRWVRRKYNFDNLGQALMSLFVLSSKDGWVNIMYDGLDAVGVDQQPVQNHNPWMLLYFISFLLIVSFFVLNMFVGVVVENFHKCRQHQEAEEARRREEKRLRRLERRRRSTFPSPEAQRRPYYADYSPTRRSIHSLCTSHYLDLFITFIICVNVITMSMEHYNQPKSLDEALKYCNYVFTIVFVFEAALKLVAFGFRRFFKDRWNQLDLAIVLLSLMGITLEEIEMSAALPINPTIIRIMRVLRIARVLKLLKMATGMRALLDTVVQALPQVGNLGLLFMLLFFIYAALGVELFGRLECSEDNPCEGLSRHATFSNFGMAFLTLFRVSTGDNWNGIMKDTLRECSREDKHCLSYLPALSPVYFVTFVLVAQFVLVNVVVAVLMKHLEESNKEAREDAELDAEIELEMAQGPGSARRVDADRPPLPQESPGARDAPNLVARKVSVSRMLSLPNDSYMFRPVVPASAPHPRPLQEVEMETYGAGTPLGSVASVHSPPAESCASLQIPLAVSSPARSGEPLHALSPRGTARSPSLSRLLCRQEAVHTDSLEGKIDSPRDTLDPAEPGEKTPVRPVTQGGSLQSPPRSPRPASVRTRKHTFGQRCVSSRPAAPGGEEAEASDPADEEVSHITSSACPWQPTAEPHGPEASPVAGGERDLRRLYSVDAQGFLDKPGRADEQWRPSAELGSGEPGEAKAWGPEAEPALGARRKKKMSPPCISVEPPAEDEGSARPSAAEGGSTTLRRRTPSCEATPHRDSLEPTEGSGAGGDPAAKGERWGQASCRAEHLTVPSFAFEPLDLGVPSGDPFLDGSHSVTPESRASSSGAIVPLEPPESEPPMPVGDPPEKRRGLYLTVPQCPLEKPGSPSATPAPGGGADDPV
# Type: functional
Active and inactive are the calls of the source.

{"columns": ["COMPOUND", "EC50"],
 "data": [
  ["O=C(CS(=O)(=O)Cc1ccccc1)Nc1ccc(S(=O)(=O)N2CCCCCC2)cc1", "4.62 µM (active)"],
  ["Cn1c(CNc2cccc(Cl)c2)nnc1SCC(=O)OC1CCCCC1", "2.53 µM (active)"],
  ["Cc1ccccc1NC(=O)c1ccc(CN2CCC(Cc3ccccc3)CC2)cc1", "0.134 µM (active)"],
  ["CCOC(=O)C(C)Sc1cc(CS(=O)(=O)c2ccccc2)nc(-c2ccccc2)n1 (configuration not stated)", "8.17 µM (active)"],
  ["O=C(Nc1nc(-c2cccs2)cs1)c1ccc(S(=O)(=O)N2CCCCC2)cc1", "3.4 µM (active)"],
  ["CCCn1nnc(NC(=O)c2ccc(-c3cccc(Cl)c3)o2)n1", "6.81 µM (active)"],
  ["Cc1ccc2[nH]c(SCCCCOc3ccccc3)nc2c1", "2.25 µM (active)"]
]}

---

# System: H9c2;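 further: cell death induced by hydrogen peroxide oxidative stress; compound pretreatment for 60 min then peroxide exposure for 2 h; potency is for protecting the cells against peroxide damage rather than for killing them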;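 further: confirmatory concentration-response retest of ultra-high-throughput screening hits for modulation of myocardial damage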
# TEST_DESCRIPTION: cells
# Format: functional, cell-based
# ASSAY_CONTEXT: Rattus norvegicus, H9c2, Myocardium
The source made the active and inactive calls.
Outcome codes: active, inactive

{"columns": ["COMPOUND", "GROUP_LABEL"],
 "data": [
  ["Cc1ccc2cc(C#N)c(N3CCN(C(=O)c4cccs4)CC3)nc2c1", "inactive"],
  ["COc1ccc2nc(O)c(CN(Cc3nnnn3Cc3ccccc3)CC3CCCO3)cc2c1 (centres undefined)", "active"],
  ["COc1ccc(C(=O)Nc2cc(C)nn2-c2nc3ccccc3[nH]2)c(OC)c1", "active"],
  ["Oc1ccc2c(c1)nc(O)c1ccccc12", "inactive"]
]}

---

# TARGET_OF_ASSAY: Oxysterols receptor LXR-beta (Homo sapiens, UniProt P55055);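 further: Cell-based luminescence dose-response assay of agonist activity at LXR, run as a confirmatory counterscreen to a daf-12 agonist screen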;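 further: HEK293 cells with Gal4-LXR fusion and GAL4-driven luciferase reporter; agonist potency from rising luciferase signal of a Gal4-LXR reporter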
# Sequence (P55055 whole entry, the tested form may be a part): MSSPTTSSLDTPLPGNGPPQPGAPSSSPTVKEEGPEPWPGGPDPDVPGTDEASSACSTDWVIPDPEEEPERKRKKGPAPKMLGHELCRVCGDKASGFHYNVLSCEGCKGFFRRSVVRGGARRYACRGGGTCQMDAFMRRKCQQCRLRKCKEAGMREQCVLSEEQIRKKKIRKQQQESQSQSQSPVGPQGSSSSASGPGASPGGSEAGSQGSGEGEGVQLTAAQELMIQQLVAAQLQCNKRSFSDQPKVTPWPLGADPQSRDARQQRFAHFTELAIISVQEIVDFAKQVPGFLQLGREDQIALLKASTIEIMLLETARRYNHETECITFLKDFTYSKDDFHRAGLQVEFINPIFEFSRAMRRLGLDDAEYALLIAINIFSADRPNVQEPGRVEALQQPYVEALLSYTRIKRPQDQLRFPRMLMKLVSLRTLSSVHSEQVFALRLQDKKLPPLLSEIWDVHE
# Format: functional, cell-based
Activity calls are given as the source filed them.
Here, each record is paired with measured EC50 data.
QUANTITY_MEASURED: EC50

{"columns": ["MOLECULAR_STRING", "RESULT"],
 "data": [
  ["Oc1ccccc1-c1cc(-c2ccccc2)no1", "> 67.5 µM (inactive)"],
  ["CC(=O)n1nc(-c2ccccc2)cc1-c1ccccc1", "> 67.5 µM (inactive)"],
  ["O=C(/C=C/c1cccs1)N1CCc2ccccc21", "> 67.5 µM (inactive)"],
  ["Fc1ccc(-c2nc3n(n2)Cc2ccccc2-3)cc1", "> 67.6 µM (inactive)"]
]}

---

# TARGET_OF_ASSAY: Apoptotic protease-activating factor 1 (Homo sapiens, UniProt O14727)
# Assay type: functional
The source made the active and inactive calls.
QUANTITY_MEASURED: IC50

{"columns": ["MOLECULAR_STRING", "TARGET_OF_ASSAY", "QUANTITY_MEASURED", "RESULT"],
 "data": [
  ["Oc1ccc(/C=N/Nc2cc(N3CCCC3)nc(N3CCCC3)n2)cc1O", "Apoptotic protease-activating factor 1 (Homo sapiens, UniProt O14727)", "IC50", "2.56 µM (active)"],
  ["CCCOc1cc2c(C#N)c(N3CCCC3)nc(N)c2c(N)n1", "Apoptotic protease-activating factor 1 (Homo sapiens, UniProt O14727)", "IC50", "15 µM (active)"],
  ["FC(F)(F)C1=Nc2cccc3cccc(c23)N1", "Apoptotic protease-activating factor 1 (Homo sapiens, UniProt O14727)", "IC50", "12.1 µM (active)"],
  ["COc1ccc(C/N=C/c2[nH]c3ccc(Br)c(Cl)c3c2O)cc1", "Apoptotic protease-activating factor 1 (Homo sapiens, UniProt O14727)", "IC50", "59.2 µM (active)"]
]}

---

# TARGET_OF_ASSAY: Replicative DNA helicase DnaB (Mycobacterium tuberculosis)
# TEST_DESCRIPTION: DnaB intein splicing inhibitors, dose response, biochemical, cell-free fluorescence (AID 449749)
# Type: functional
Calls of active or inactive are those of the source.
Outcome codes: active, inactive

{"columns": ["COMPOUND", "GROUP_LABEL"],
 "data": [
  ["CCCC(=O)OCCNc1cc(SCc2ccco2)c2nonc2c1[N+](=O)[O-]", "active"],
  ["CC(C)(C)OC(=O)NCCc1nnc(S(=O)(=O)Cc2ccc(Cl)cc2Cl)o1", "active"],
  ["Cc1nnc(Sc2nc3ccccc3o2)c2ccccc12", "active"],
  ["COc1ccc(C2CC(c3cccs3)=NN2C(=O)CCl)cc1OC (configuration not stated)", "active"],
  ["Nc1nc(-c2ccc(Br)cc2)c(S(=O)(=O)c2ccccc2)s1", "active"],
  ["Oc1cnn(-c2ccccc2)c1", "active"],
  ["O=[N+]([O-])C(/C=C(/Cl)[N+](=O)[O-])=C(N1CCCCC1)N1CCCCC1", "active"],
  ["CCCc1nnc(NC(=O)c2nc(S(=O)(=O)Cc3ccc(C)cc3)ncc2Cl)s1", "inactive"],
  ["Cc1cccn2c(CNCC3(c4ccccc4)CCCC3)c(C(=O)N3CCOCC3)nc12", "inactive"],
  ["Cc1cc2nc3ccc(N(C)C)cc3[s+]c2cc1N [TOLONIUM CHLORIDE]", "active"],
  ["CCOC(=O)Cc1n[nH]c2c1C(c1ccsc1)C(C#N)=C(N)O2 (configuration not stated)", "inactive"],
  ["CN(N)C(S)=Nc1ccc(Cl)cc1", "inactive"],
  ["CC(=O)Oc1ccc2ccccc2c1C(NC(=O)Cc1ccccc1)c1ccc(Cl)cc1 (configuration not stated)", "active"],
  ["O=C(Nc1ccccc1)NN(C(=O)CCl)c1ccccc1", "active"],
  ["CCN1C(=O)C(=NNc2cccc(S(=O)(=O)N3CCOCC3)c2)C(=O)N(CC)C1=S", "inactive"],
  ["CCOC(=O)c1c(CSC(=N)N)n(-c2ccc(C)cc2)c2cc(Br)c(OC(C)=O)cc12", "active"],
  ["COc1ccc(C2=NN(C(=O)/C=C/c3ccccc3)C(c3ccccc3)C2)c(OC(C)=O)c1 (configuration not stated)", "inactive"],
  ["CCOc1cc(/C=N\\NC(=O)OC(C)(C)C)ccc1OC(=O)c1ccco1", "active"],
  ["CCOC(=O)c1ccc(NC(=O)Cn2ncc(Cl)c(Cl)c2=O)cc1", "active"],
  ["CCCc1n[nH]c2c1C(c1cccc(OC)c1)C(C#N)=C(N)O2 (configuration not stated)", "active"],
  ["COC(=O)CSc1nc2sc3c(c2c(=O)n1C1CCCCC1)CCN(C)C3", "inactive"],
  ["O=C1C2=[N+]([O-])C3CCCCC3[N+]([O-])=C2c2ccccc21 (configuration not stated)", "active"]
]}
